# target.under.test: UniProt:Q12809
# Sequence (Q12809 whole entry): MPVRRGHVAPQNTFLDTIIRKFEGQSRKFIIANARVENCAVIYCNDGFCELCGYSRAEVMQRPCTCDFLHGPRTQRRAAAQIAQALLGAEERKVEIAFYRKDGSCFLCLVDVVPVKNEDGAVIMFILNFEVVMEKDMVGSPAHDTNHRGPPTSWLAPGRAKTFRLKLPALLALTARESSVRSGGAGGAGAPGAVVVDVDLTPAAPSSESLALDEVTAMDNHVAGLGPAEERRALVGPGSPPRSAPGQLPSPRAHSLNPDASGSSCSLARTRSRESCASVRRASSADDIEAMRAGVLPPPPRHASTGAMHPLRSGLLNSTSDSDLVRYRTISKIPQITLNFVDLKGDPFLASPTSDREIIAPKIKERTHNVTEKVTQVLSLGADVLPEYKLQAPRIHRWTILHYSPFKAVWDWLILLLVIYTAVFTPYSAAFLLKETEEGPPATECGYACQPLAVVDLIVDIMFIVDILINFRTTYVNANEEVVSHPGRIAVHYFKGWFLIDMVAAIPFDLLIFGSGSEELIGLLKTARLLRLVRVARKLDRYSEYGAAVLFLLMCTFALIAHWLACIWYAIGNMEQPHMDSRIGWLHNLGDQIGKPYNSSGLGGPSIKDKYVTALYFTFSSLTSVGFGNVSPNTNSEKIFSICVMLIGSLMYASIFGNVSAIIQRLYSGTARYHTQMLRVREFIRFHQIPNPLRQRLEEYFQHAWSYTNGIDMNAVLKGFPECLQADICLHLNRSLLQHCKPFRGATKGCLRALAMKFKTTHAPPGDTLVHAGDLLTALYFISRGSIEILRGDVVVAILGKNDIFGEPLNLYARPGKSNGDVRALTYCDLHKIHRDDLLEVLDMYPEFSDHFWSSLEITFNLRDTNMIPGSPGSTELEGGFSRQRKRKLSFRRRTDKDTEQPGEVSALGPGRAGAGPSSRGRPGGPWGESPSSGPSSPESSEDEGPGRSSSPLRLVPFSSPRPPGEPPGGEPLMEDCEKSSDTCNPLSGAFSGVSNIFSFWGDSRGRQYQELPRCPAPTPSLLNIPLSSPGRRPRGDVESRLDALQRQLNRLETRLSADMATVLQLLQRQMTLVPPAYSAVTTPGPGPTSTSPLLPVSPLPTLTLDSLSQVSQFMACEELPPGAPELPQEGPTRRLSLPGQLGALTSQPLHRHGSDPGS
# assay.procedure: Inhibition of hERG
# Assay type: toxicity
value.type: pIC50
// pIC50 here means minus log10 of the molar concentration (mol/L)

Suppose we examine the molecule CC(C)c1c2cc(-c3nc(Nc4ccc(N5CCNCC5)cn4)ncc3F)ccc2nn1C ; what pIC50 value has been reported? 5.28

====

# target.under.test: CDK6/cyclin D1 (Homo sapiens, UniProt Q00534)
# Sequence (P24385 whole entry): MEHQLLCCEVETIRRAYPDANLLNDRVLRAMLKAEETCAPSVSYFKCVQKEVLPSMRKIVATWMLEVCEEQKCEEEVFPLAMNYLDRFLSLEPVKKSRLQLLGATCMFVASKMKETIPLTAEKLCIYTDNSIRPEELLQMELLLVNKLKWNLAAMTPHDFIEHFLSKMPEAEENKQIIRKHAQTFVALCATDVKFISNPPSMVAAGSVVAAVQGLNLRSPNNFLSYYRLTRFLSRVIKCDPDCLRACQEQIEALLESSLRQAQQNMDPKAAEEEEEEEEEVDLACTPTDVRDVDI
# Sequence (Q00534 whole entry): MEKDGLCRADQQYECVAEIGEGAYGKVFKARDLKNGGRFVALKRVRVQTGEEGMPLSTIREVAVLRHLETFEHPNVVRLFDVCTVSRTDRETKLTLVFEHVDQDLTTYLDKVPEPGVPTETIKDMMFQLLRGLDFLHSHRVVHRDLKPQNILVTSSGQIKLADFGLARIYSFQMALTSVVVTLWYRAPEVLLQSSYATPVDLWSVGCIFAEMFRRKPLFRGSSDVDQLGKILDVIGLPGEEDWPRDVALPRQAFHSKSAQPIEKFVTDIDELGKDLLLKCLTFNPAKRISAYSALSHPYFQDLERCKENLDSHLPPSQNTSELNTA
# assay.procedure: Inhibition of CDK6/Cyclin D1 (unknown origin)
pIC50: −log10 of the molar value.
Would you please tag the item 1 (yes) when its pIC50 is 9 or above, and 0 (no) when it is below?

Answer whether pIC50 of CC(C)c1c2cc(-c3nc(Nc4ccc(N5CC6CC5CN6)cn4)ncc3F)ccc2nn1C (centres undefined) is greater than or equal to 9. 1 (yes)

Answer whether pIC50 of CC(C)c1c2cc(-c3nc(Nc4ccc(C5CCNCC5)cn4)ncc3F)ccc2nn1C is greater than or equal to 9. 1 (yes)

Answer whether pIC50 of CCN1CCN(Cc2ccc(Nc3ncc(F)c(N4CCc5nn(C)c(C(C)C)c5C4)n3)nc2)CC1 is greater than or equal to 9. 0 (no)

Answer whether pIC50 of Cc1cc(Nc2ncc(F)c(-c3ccc4nn(C)c(C(C)C)c4c3)n2)ncc1N1CCNCC1 is greater than or equal to 9. 0 (no)

Answer whether pIC50 of CC(C)c1c2cc(-c3nc(Nc4cnc(N5CCNCC5)cn4)ncc3F)ccc2nn1C is greater than or equal to 9. 0 (no)

Answer whether pIC50 of CCN1CCN(Cc2ccc(Nc3ncc(F)c(N4CCc5ncn(C(C)C)c5C4)n3)nc2)CC1 is greater than or equal to 9. 0 (no)
